// values below are reported pIC50 (FACS)
- TARGET_OF_ASSAY: FAP-expressing human WI-38 fibroblasts (Homo sapiens (Human))
- Sequence (Q12884 whole entry): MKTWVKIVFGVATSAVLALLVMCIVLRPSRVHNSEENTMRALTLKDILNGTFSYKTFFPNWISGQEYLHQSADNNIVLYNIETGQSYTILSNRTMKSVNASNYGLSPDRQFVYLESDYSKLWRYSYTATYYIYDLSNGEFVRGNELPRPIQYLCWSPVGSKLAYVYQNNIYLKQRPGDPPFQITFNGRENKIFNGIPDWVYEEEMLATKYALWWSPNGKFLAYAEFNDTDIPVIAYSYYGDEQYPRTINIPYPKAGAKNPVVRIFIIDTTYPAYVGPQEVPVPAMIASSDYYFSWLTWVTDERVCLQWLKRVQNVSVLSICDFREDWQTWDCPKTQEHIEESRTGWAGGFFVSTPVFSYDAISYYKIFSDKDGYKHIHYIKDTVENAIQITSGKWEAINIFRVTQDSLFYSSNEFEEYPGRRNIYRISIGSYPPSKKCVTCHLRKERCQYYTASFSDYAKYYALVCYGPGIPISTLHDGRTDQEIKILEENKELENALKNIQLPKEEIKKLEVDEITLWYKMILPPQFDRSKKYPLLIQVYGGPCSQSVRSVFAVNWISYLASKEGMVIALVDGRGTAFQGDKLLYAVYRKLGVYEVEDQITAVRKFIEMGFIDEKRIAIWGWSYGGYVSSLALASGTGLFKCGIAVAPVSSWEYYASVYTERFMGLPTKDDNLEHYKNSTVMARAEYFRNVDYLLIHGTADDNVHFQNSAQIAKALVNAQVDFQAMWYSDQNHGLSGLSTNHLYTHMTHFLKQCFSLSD
- ASSAY_METHOD_TEXT: FACS binding assay (competitive, Cy5-labeled 3BP-2935)
- MEASUREMENT_CONDITIONS: WI-38 fibroblasts
Give the value as a plain number.

Some entries whose results are on file:
- COMPOUND: "CS(=O)(=O)c1ccc(-c2ccc3nccc(C(=O)NCC(=O)N4C[C@@H](F)C[C@H]4C#N)c3c2)cc1 [Compound 3BP-3774]"
  MEASUREMENT_LABEL: "pIC50 (FACS)"
  MEASURED_NUMBER: 8.8
- COMPOUND: "N#C[C@@H]1CCCN1C(=O)CNC(=O)c1ccnc2ccc(-c3ccc(C(=O)NCCCNC(O)CN4CCN5CCN6CCN(CC4)CC(=O)[O][Eu]([O]C(=O)C6)[O]C(=O)C5)cc3)cc12 (stereo partly drawn) [Compound 3BP-3830]"
  MEASUREMENT_LABEL: "pIC50 (FACS)"
  MEASURED_NUMBER: 8.5
- COMPOUND: "O=C(NCC(=O)N1CCC[C@H]1B(O)O)c1ccnc2ccccc12 [Compound 3BP-4081]"
  MEASUREMENT_LABEL: "pIC50 (FACS)"
  MEASURED_NUMBER: 8.5
- COMPOUND: "Cc1cc(S(C)(=O)=O)ccc1-c1ccc2nccc(C(=O)NCC(=O)N3CCC[C@H]3C#N)c2c1 [Compound 3BP-3953]"
  MEASUREMENT_LABEL: "pIC50 (FACS)"
  MEASURED_NUMBER: 7.9

Need pIC50 (FACS), item N#C[C@@H]1CC(F)(F)CN1C(=O)CNC(=O)c1ccnc2ccc(-c3ccc(C(=O)NCCCNC(O)CN4CCN5CCN6CCN(CC4)CC(=O)[O][Eu]([O]C(=O)C6)[O]C(=O)C5)cc3)cc12 (stereo partly drawn) [Compound 3BP-3829]
8.9

Which measured pIC50 (FACS) value corresponds to Cc1cc(S(C)(=O)=O)ccc1-c1ccc2nccc(C(=O)NCC(=O)N3CC(F)(F)C[C@H]3C#N)c2c1 [Compound 3BP-3952] ?
8.7

###

pIC50 (FACS) by entry:
- TARGET_OF_ASSAY: FAP-expressing human WI-38 fibroblasts (Homo sapiens (Human))
- ASSAY_METHOD_TEXT: FACS binding assay (competitive, Cy5-labeled 3BP-2935)
- MEASUREMENT_CONDITIONS: FAP-expressing WI-38 fibroblasts
Number only, no unit.

Any idea what pIC50 (FACS) was measured for CC(C)(C)c1nnc(C(=O)[C@@H]2CCCN2C(=O)CNC(=O)c2ccnc3ccccc23)o1 [Compound 3BP-3632] ?
7.8

Using the record for O=C(NCC(=O)N1CCC[C@H]1C(=O)c1nccs1)c1ccnc2ccccc12 [Compound 3BP-3206] , report its pIC50 (FACS).
7

Reported pIC50 (FACS) for CS(=O)(=O)c1ccc(-c2ccc3nccc(C(=O)NCC(=O)N4CCC[C@H]4C#N)c3c2)cc1 [Compound 3BP-3235] : what is it?
8.4

Need pIC50 (FACS) of CC(C)(C)OC(=O)N1CC[N+]([O-])(CCCOc2ccc3c(c2)c(C(=O)NCC(=O)N2CC(F)(F)C[C@H]2C#N)cc[n+]3[O-])CC1 [Compound 3BP-3578] , thanks.
8

Give its pIC50 (FACS) value. Item: N#C[C@@H]1CC(F)(F)CN1C(=O)CNC(=O)c1ccnc2ccc(OCCCN3CCN(C(=O)CN4CCN5CCN6CCN(CC4)CC(=O)[O][Lu]([O]C(=O)C6)[O]C(=O)C5)CC3)cc12 [Compound 3BP-3469]
8.7

Sourced from patent US20240335569A1
